tested on: Candida albicans; test: Fungicidal activity against Candida albicans ATCC 10231 after 18 to 24 hrs; assay type: functional; conditions: read-out: MFC99.9
Below, each entry is listed with its recorded MFC.
# number only, unit µg/mL dropped from output

Item Cc1cc(C)cc(Nc2ccc(Nc3c(Cl)c(Cl)c(C#N)c(Cl)c3C#N)c3nc[nH]c(=O)c23)c1 was tested on Candida albicans; the reported MFC is 52.1

Item N#Cc1c(Cl)c(Cl)c(Cl)c(C#N)c1Cl was tested on Candida albicans; the reported MFC is 7.8

Item N#Cc1c(Cl)c(Cl)c(Nc2ccc(Nc3ccc(F)cc3)c3c(=O)[nH]cnc23)c(C#N)c1Cl was tested on Candida albicans; the reported MFC is 52.1

Item CN(C)c1ccc(Nc2c(Cl)c(Cl)c(C#N)c(Cl)c2C#N)c2nc[nH]c(=O)c12 was tested on Candida albicans; the reported MFC is 7.8

Item OC(Cn1cncn1)(Cn1cncn1)c1ccc(F)cc1F was tested on Candida albicans; the reported MFC is 15.6

Item N#Cc1c(Cl)c(Cl)c(Nc2ccc(N3CCCCC3)c3c(=O)[nH]cnc23)c(C#N)c1Cl was tested on Candida albicans; the reported MFC is 41.7

Item N#Cc1c(Cl)c(Cl)c(Nc2ccc(Nc3cccc(Cl)c3)c3c(=O)[nH]cnc23)c(C#N)c1Cl was tested on Candida albicans; the reported MFC is 31.3

Just for reference, ChEMBL document CHEMBL2434951 is where these values come from.
